Heads up, these compounds all have Ki values measured for 5-hydroxytryptamine receptor 1B (Rattus norvegicus).
Numeric only. Scale: µM

structure_notation=c1ccc2c(CCC3CCNCC3)c[nH]c2c1 measured_attribute=Ki unit=µM value_observed=4.47

Then this compound:
Ki in this record for COc1ccc(OC[C@H]2CN(C)CC[C@@H]2c2ccccc2)cc1 : 9.33

----------
# assayed-system: UniProt:P35563
# Sequence (P35563 whole entry): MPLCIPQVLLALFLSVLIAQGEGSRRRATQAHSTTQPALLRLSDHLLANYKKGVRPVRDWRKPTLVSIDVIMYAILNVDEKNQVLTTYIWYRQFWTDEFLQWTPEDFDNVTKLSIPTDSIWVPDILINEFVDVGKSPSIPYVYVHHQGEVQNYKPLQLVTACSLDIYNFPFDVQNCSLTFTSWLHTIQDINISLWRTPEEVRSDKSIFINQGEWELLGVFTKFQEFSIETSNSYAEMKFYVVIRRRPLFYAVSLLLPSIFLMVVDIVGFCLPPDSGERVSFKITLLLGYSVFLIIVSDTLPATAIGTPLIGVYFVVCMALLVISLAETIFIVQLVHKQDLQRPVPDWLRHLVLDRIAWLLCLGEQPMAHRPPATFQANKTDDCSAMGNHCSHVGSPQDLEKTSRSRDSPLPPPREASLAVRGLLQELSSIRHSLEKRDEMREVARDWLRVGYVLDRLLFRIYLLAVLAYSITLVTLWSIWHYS
Counter-ions that a name gives are not always drawn.
measured-attribute: Ki

Illustrative cases are given below, each with its answer.
compound=Fc1ccc([C@@H]2CCNC[C@H]2COc2ccc3c(c2)OCO3)cc1 value_observed="2.63 µM"
compound=COc1ccc(OC[C@H]2CN(C)CC[C@@H]2c2ccccc2)cc1 value_observed="> 10 µM"

The reported Ki value, UniProt:P35563, for CN(C)CCCC1(c2ccc(F)cc2)OCc2cc(C#N)ccc21 (stereo not drawn) [CITALOPRAM HYDROBROMIDE] reads > 10 µM

----------
# assayed-system: Beta-arrestin-2 (Bos taurus)
# Sequence (P32120 whole entry): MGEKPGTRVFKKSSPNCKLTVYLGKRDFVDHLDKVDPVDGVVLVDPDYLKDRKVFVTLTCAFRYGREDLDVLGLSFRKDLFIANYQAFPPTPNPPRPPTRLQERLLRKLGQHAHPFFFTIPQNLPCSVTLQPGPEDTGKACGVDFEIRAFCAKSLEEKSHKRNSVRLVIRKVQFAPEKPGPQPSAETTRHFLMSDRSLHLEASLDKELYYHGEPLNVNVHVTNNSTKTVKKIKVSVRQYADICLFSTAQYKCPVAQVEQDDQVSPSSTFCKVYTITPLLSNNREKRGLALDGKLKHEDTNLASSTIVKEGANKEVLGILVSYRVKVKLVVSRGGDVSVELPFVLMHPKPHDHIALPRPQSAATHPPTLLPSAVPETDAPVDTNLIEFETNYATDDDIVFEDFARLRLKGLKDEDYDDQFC
Structures can show the parent of a compound that is named as a salt.
Mark YES for Ki under 3000 nM, NO if at or over.

compound="CNCC[C@@H](Oc1ccc(C(F)(F)F)cc1)c1ccccc1 [Prozac]" assayed_system="Beta-arrestin-2 (Bos taurus)" category=YES
compound="CN(C)CCCC1(c2ccc(F)cc2)OCc2cc(C#N)ccc21 (stereo unspecified) [CITALOPRAM HYDROBROMIDE]" assayed_system="Beta-arrestin-2 (Bos taurus)" category=NO
compound=CNCC[C@@H](Oc1ccc(C(F)(F)F)cc1)c1ccccc1 assayed_system="Beta-arrestin-2 (Bos taurus)" category=NO

q: Here's an entry: CNCC[C@@H](Oc1ccc(C(F)(F)F)cc1)c1ccccc1 [Fluoxetine-R-(-)] . Is its Ki below 3000 nM?
a: YES

q: Say whether its Ki is strictly beneath 3000 nM. Entry: Fc1ccc([C@@H]2CCNC[C@H]2COc2ccc3c(c2)OCO3)cc1
a: NO

q: hey, is Ki for COc1ccc(OC[C@H]2CN(C)CC[C@@H]2c2ccccc2)cc1 lower than 3000 nM or not?
a: YES
